// reported pIC50 per item
# Tested on: human whole blood (leukotriene and prostaglandin levels)
# Experiment summary: Eicosanoid production from human whole blood
# Assay type: cell-based
# Condition: human whole blood stimulated with calcium ionophore A23187 and arachidonic acid; ELISA
pIC50 is a log-scale quantity: -log10 of the concentration expressed in molar.

Some entries whose results are on file:
- Compound: "COc1cc(Sc2cccc(C3(C(N)=O)CCOCC3)c2)ccc1C(=O)c1ccnn1C"
  pIC50: 5.70
- Compound: "Cn1nccc1C(=O)c1ccc(Sc2cccc(C3(C(N)=O)CCOCC3)c2)cc1Cl"
  pIC50: 6.33
- Compound: "Cn1nccc1-c1ccc(Sc2cccc(C3(C(N)=O)CCOCC3)c2Cl)cc1"
  pIC50: 6.00

Query the reported pIC50 for human whole blood (leukotriene and prostaglandin levels); item: NC(=O)C1(c2cccc(Sc3ccc(-c4ccnn4C4CCCCC4)cc3)c2)CCOCC1
6.39

Query the reported pIC50 for human whole blood (leukotriene and prostaglandin levels); item: Cn1nccc1C(=O)c1ccc(Sc2cccc(C3(C(N)=O)CCOCC3)c2)c(Cl)c1
5.61

Query the reported pIC50 for human whole blood (leukotriene and prostaglandin levels); item: Cn1ncc(Br)c1-c1ccc(Sc2cccc(C3(C(N)=O)CCOCC3)c2)cc1F
5.86

Query the reported pIC50 for human whole blood (leukotriene and prostaglandin levels); item: C[C@H]1C[C@@](C#N)(c2cc(F)cc(Sc3ccc(-c4ccnn4C)c(F)c3)c2)CCO1
6.97

Query the reported pIC50 for human whole blood (leukotriene and prostaglandin levels); item: NC(=O)C1(c2cccc(Sc3ccc(-c4[nH]ncc4Br)cc3)c2)CCOCC1
5.85

Query the reported pIC50 for human whole blood (leukotriene and prostaglandin levels); item: Cn1nccc1Cc1ccc(Sc2cccc(C3(C(N)=O)CCOCC3)c2)cc1
6.11

* * *

// reported IC50 per item
# Test system: human whole blood (leukotriene and prostaglandin levels)
# Experiment summary: Eicosanoid production from human whole blood
# Type: cell-based
# Condition: human whole blood stimulated with calcium ionophore A23187 and arachidonic acid; ELISA
Give the value; after it, write the unit.

Some entries whose results are on file:
- Molecule: "C[C@H]1C[C@@](C(N)=O)(c2cccc(Sc3ccc(-c4c(Br)cnn4C)cc3)c2F)CCO1"
  Test system: "human whole blood (leukotriene and prostaglandin levels)"
  IC50: "672 nM"
- Molecule: "Cc1nccn1-c1ccc(Sc2cccc(C3(C(N)=O)CCOCC3)c2)cc1 [(d), reference compound]"
  Test system: "human whole blood (leukotriene and prostaglandin levels)"
  IC50: "275 nM"
- Molecule: "Cn1nccc1-c1ccc(Sc2cccc(C3(C#N)CCOCC3)c2F)cc1"
  Test system: "human whole blood (leukotriene and prostaglandin levels)"
  IC50: "124 nM"

Record request: IC50 value, item CCNC(=O)C1(c2cccc(Sc3ccc(-c4ccnn4C)cc3)c2)CCOCC1
565 nM

Record request: IC50 value, item Cn1nccc1-c1ccc(Sc2cccc(C3(C#N)CCOCC3)c2F)c(F)c1
33 nM

Record request: IC50 value, item Cn1nccc1-c1ccc(Sc2cc(C3(C(N)=O)CCOCC3)ccc2F)cc1
859 nM

Record request: IC50 value, item Cn1nccc1-c1ccc(Sc2cccc(C3(C(N)=O)CCOCC3)c2)c(F)c1
267 nM

* * *

// reported IC50 per item
# System: human whole blood (leukotriene and prostaglandin levels)
# Experiment summary: Eicosanoid production from human whole blood
# Assay type: cell-based
# Condition: human whole blood stimulated with calcium ionophore A23187 and arachidonic acid; ELISA
Just the number in µM, nothing appended.

- Structure smiles string: "NC(=O)C1(c2cccc(Sc3ccc(-c4ccnn4C4CCCCCC4)cc3)c2)CCOCC1"
  Value reported: 0.26

Record request: IC50 value, item C[C@H]1C[C@@](C(N)=O)(c2cccc(Sc3ccc(C(=O)c4ccnn4C)cc3)c2)CCO1
0.407

Record request: IC50 value, item Cn1nccc1C(=O)c1ccc(Sc2cccc(C3(C(N)=O)CCOCC3)c2)cc1C#N
0.64
